Field: dsRNA signal, AU Low. Provide a value for each of the compounds that follow.
# Test system: SARS-CoV-2 (USA-WA1/2020) in Calu-3 cells
# Format: cell-based
# study conditions: low dose (100 nM), Calu-3, 48 h
The number alone won't do; follow it with the unit.

Field: example entries. Status: answers known.
- compound: "O=[N+]([O-])c1ccc(-c2nc(-c3ccncc3)c(-c3ccc(F)cc3)[nH]2)cc1"
  measured target: "SARS-CoV-2 (USA-WA1/2020) in Calu-3 cells"
  dsRNA signal, AU Low: "13218.6 AU"
- compound: "Cc1ccc2nc(NCCN)c3ncc(C)n3c2c1.Cl [BMS345541 hydrochloride]"
  measured target: "SARS-CoV-2 (USA-WA1/2020) in Calu-3 cells"
  dsRNA signal, AU Low: "5872.9 AU"

Take each entry in turn and give its dsRNA signal, AU Low.
1. CN(C)C/C=C/C(=O)Nc1cccc(C(=O)Nc2ccc(Nc3nccc(-c4cccnc4)n3)cc2)c1
2. CCCC(=O)Nc1ncnc2c1ncn2[C@@H]1O[C@@H]2COP(=O)([O-])O[C@H]2[C@H]1OC(=O)CCC.[Na+] [Dibutyryl-cAMP, sodium salt]

1: 45982.8 AU; 2: 55803.3 AU

====

# System: SARS-CoV-2 (USA-WA1/2020) in Calu-3 cells
# Type: cell-based
# study conditions: low dose (100 nM), Calu-3, 48 h
measured endpoint: dsRNA signal, AU Low (AU)
Numbers only, in AU.

- compound: "O=C(O)/C=C/C(=O)O [Fumalic acid]"
  measured target: "SARS-CoV-2 (USA-WA1/2020) in Calu-3 cells"
  dsRNA signal, AU Low (AU): 6874.3
- compound: "CC(=O)NCCc1c[nH]c2ccc(O)cc12 [N-Acetylserotonin]"
  measured target: "SARS-CoV-2 (USA-WA1/2020) in Calu-3 cells"
  dsRNA signal, AU Low (AU): 53222.8
- compound: "Cn1cc(-c2ccc(F)c(C(F)(F)F)c2)nc1C1CCN(c2ncnc3[nH]ncc23)CC1 [LY2584702]"
  measured target: "SARS-CoV-2 (USA-WA1/2020) in Calu-3 cells"
  dsRNA signal, AU Low (AU): 15579.4

Take each entry in turn and give its dsRNA signal, AU Low.
1. O=C(CCl)c1c[nH]c2ccccc12 [3CAI]
2. Cl.c1ccc2c(-c3cnn4cc(-c5ccc(N6CCNCC6)cc5)cnc34)ccnc2c1 [LDN193189 Hydrochloride]
3. COc1ccc(-c2ccc3c(N4CCOC[C@@H]4C)nc(N4CCOC[C@@H]4C)nc3n2)cc1CO [AZD8055]
4. C[C@@H]1CC[C@H]2[C@@H](C)C(=O)O[C@@H]3O[C@@]4(C)CC[C@@H]1[C@]32OO4 [Artemisinine]

1. 43810.0
2. 24650.0
3. 39910.8
4. 35035.3

The reported dsRNA signal, AU Low of the compound C[C@@H]1C(=O)O[C@H](C)[C@H]1C[C@@H](O)[C@](C)(O)[C@H]1CC[C@@]2(O)C3=CC(=O)[C@@H]4C[C@@H](O)[C@@H](O)C[C@]4(C)[C@H]3CC[C@]12C [Cyasterone] was 11248.2

====

Field: dsRNA signal, AU Low. Provide a value for each of the compounds that follow.
# System: SARS-CoV-2 (USA-WA1/2020) in Calu-3 cells
# Assay type: cell-based
# study conditions: low dose (100 nM), Calu-3, 48 h

Field: example entries. Status: answers known.
- compound: "O=C1NC(=O)[C@@H](c2cn3c4c(cccc24)CCC3)[C@@H]1c1c[nH]c2ccccc12 [Tivantinib]"
  dsRNA signal, AU Low: "19485.6 AU"
- compound: "CNC(=O)c1cccc(-c2ccc3c(N4CCOC[C@@H]4C)nc(N4CCOC[C@@H]4C)nc3n2)c1"
  dsRNA signal, AU Low: "12584.4 AU"
- compound: "O=[N+]([O-])c1ccc(Nc2nc(N3CCOCC3)nc(N3CCOCC3)n2)cc1"
  dsRNA signal, AU Low: "35655.5 AU"
- compound: "O=C(Nc1nc2ccc(NC(=O)C34CC5CC(CC(C5)C3)C4)cc2s1)c1ccccc1"
  dsRNA signal, AU Low: "14037.2 AU"

Take each entry in turn and give its dsRNA signal, AU Low.
1. CC(C)=CCC[C@](C)(O[C@@H]1O[C@H](CO)[C@@H](O)[C@H](O)[C@H]1O)[C@H]1CC[C@]2(C)[C@@H]1[C@H](O)C[C@@H]1[C@@]3(C)CC[C@H](O)C(C)(C)[C@@H]3[C@@H](O[C@@H]3O[C@H](CO)[C@@H](O)[C@H](O)[C@H]3O[C@@H]3O[C@@H](C)[C@H](O)[C@@H](O)[C@H]3O)C[C@]12C [Ginsenoside Re]
2. CS(=O)(=O)N1CCC(NC(=O)c2[nH]ncc2NC(=O)c2c(Cl)cccc2Cl)CC1
3. Cl.O=S(=O)(c1cccc2cnccc12)N1CCNCC1 [HA-100 (hydrochloride)]
4. Cc1cnc(NC(=O)Nc2cc(Br)c(C)cc2OC[C@@H]2CNCCO2)cn1
5. Cc1cn(-c2cc(NC(=O)c3ccc(C)c(Nc4nccc(-c5cnccn5)n4)c3)cc(C(F)(F)F)c2)cn1
6. CNC(=O)Nc1ccc(-c2nc(N3CC4CCC(C3)O4)c3cnn(C4CCC5(CC4)OCCO5)c3n2)cc1

65920.2 AU
35350.1 AU
14084.7 AU
6197.3 AU
29413.0 AU
21738.1 AU

Take each entry in turn and give its dsRNA signal, AU Low.
1. CC(O)C(=O)O.CC(O)C(=O)O.CN1CCN(c2ccc3nc(-c4c(N)c5c(F)cccc5[nH]c4=O)[nH]c3c2)CC1
2. CCOc1cc2ncc(C#N)c(Nc3ccc(OCc4ccccn4)c(Cl)c3)c2cc1NC(=O)/C=C/CN(C)C
3. Cc1cc(CS(=O)(=O)c2ccccc2)cc(OCc2ccc(CN3CCC[C@@H]3CO)cc2)c1
4. O=C1NC(=O)C(=Cc2ccc(-c3ccc(F)cc3)o2)S1 (stereo in doubt)

17331.2 AU
11881.7 AU
66805.4 AU
16784.8 AU

Take each entry in turn and give its dsRNA signal, AU Low.
1. CCCCOc1cc(C(=O)NCCN(CC)CC)c2ccccc2n1.Cl [Dibucaine (Cinchocaine) HCl]
2. O=c1cc(-c2cccc3c2Sc2ccccc2S3)oc(N2CCOCC2)c1
3. COc1ccc(CNC(=O)Nc2ncc([N+](=O)[O-])s2)cc1
4. Cc1cc(O)c2c(c1)C(=O)c1cc(O)cc(O)c1C2=O
5. O=C(NCCO)c1cccc(-c2cc(Nc3ccc(OC(F)(F)F)cc3)ncn2)c1
6. c1ccc(-c2[nH]ncc2-c2ccnc3ccccc23)nc1
7. Cc1c(C(=O)N2CCOc3ccc(-c4ccc(N)nc4)cc3C2)ccc(S(C)(=O)=O)c1F

11778.5 AU
52307.6 AU
22152.5 AU
11688.8 AU
65630.6 AU
3456.2 AU
16443.4 AU

Take each entry in turn and give its dsRNA signal, AU Low.
1. CC(C)(C)c1cc(/C=C(\C#N)C(N)=S)cc(C(C)(C)C)c1O
2. CN(C)Cc1cccc(N/C(=C2\C(=O)Nc3cc(C(N)=O)ccc32)c2ccccc2)c1
3. O=C1NC(=O)C(c2cnc3ccccn23)=C1c1cn2c3c(cc(F)cc13)CN(C(=O)N1CCCCC1)CC2
4. O=C(O)C[C@H](O)C[C@H](O)/C=C/c1c(C2CC2)nc2ccccc2c1-c1ccc(F)cc1 [Pitavastatin Calcium]
5. CC[C@@H]1C(=O)N(C)c2cnc(Nc3ccc(C(=O)NC4CCN(C)CC4)cc3OC)nc2N1C1CCCC1
6. O=c1cc(-c2ccc(O)cc2)oc2cc(O)cc(O)c12
7. Cn1nccc1Nc1nccc(-c2ccn([C@H](CO)c3ccc(Cl)c(F)c3)c(=O)c2)n1

6760.3 AU
23376.7 AU
7523.7 AU
23195.0 AU
58236.8 AU
15810.5 AU
7646.0 AU

====

Field: dsRNA signal, AU Low. Provide a value for each of the compounds that follow.
# Tested on: SARS-CoV-2 (USA-WA1/2020) in Calu-3 cells
# Format: cell-based
# study conditions: low dose (100 nM), Calu-3, 48 h
Numbers only, in AU.

Take each entry in turn and give its dsRNA signal, AU Low.
1. CC(C)c1cc(CNc2nc(Nc3cc(C4CC4)[nH]n3)cc(N3CCN(C)CC3)n2)on1
2. C=CC(=O)Nc1cccc(Oc2nc(Nc3ccc(N4CCN(C)CC4)cc3)ncc2Cl)c1

[39819.2, 16337.5]

====

# Test system: SARS-CoV-2 (USA-WA1/2020) in Calu-3 cells
# Format: cell-based
# study conditions: low dose (100 nM), Calu-3, 48 h
measured endpoint: dsRNA signal, AU Low (AU)
Give bare numbers, in AU.

Field: example entries. Status: answers known.
- compound: "C[n+]1cc2c3c(ccc2c2ccc4cc5c(cc4c21)OCO5)OCO3 [Sanguinarine]"
  measured endpoint: "dsRNA signal, AU Low"
  scale unit: "AU"
  assay result: 895.9
- compound: "Cc1[nH]c(/C=C2\\C(=O)Nc3ccc(S(=O)(=O)Cc4c(Cl)cccc4Cl)cc32)c(C)c1C(=O)N1CCC[C@@H]1CN1CCCC1 [PHA-665752]"
  measured endpoint: "dsRNA signal, AU Low"
  scale unit: "AU"
  assay result: 11571.8
- compound: "N#Cc1c(Oc2ccc(F)c(NC(=O)Cc3cccc(C(F)(F)F)c3)c2)ccc2nc(NC(=O)C3CC3)sc12 [TAK-632]"
  measured endpoint: "dsRNA signal, AU Low"
  scale unit: "AU"
  assay result: 8796.8

The observed dsRNA signal, AU Low for Nc1cccc(-c2cc3c(Oc4cccc(O)c4)ncnc3[nH]2)c1 [TWS119] when tested with SARS-CoV-2 (USA-WA1/2020) in Calu-3 cells stands at 29417.1

Origin of values: paper PMC12142043
